target: RIPK1 (Homo sapiens)
Sequence (Q13546 1-327 limits assumed): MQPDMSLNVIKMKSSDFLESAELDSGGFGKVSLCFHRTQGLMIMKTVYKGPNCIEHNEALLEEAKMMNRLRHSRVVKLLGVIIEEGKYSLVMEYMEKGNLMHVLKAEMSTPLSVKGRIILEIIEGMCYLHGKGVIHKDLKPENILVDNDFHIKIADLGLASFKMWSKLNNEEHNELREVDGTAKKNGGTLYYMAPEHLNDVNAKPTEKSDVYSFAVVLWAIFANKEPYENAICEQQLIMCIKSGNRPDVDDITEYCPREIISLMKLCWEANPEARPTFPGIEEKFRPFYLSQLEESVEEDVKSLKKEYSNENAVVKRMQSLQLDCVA
attribute_measured: IC50 (nM)
Respond with the bare value in nM.

Asked: Any idea what IC50 came out for "Cc1ccc(C(=O)Nc2ccc(CN3CCN(C)CC3)c(C(F)(F)F)c2)cc1C#Cc1cnc2[nH]ncc2c1" on RIPK1 (Homo sapiens)?
Given back: 54

###

assay: in vitro; details: African green monkey
CC50 values for the compounds below.

>  <compound>
Cc1cccc(C)c1OCC(=O)N[C@@H](Cc1ccccc1)[C@@H](O)C[C@H](Cc1ccccc1)NC(=O)[C@H](C(C)C)N1CCCNC1=O [Lopinavir]

>  <CC50>
> 50 µM

$$$$

Asked: // CC50 lookup, key: CCN(CC)CCCC(C)Nc1ccnc2cc(Cl)ccc12 (centres unmarked) [Chloroquine]
Given back: > 150 µM

Asked: // CC50 lookup, key: Cc1ccc(C(=O)Nc2ccc(CN3CCN(C)CC3)c(C(F)(F)F)c2)cc1C#Cc1cnc2[nH]ncc2c1 [Compound 1]
Given back: > 5 µM

Asked: // CC50 lookup, key: CCC(CC)COC(=O)[C@H](C)N[P@](=O)(OC[C@H]1O[C@@](C#N)(c2ccc3c(N)ncnn23)[C@H](O)[C@@H]1O)Oc1ccccc1 [Remdesivir]
Given back: > 50 µM

Asked: // CC50 lookup, key: CN[C@@H](C)C(=O)N[C@H]1CN(S(=O)(=O)c2cccc(S(=O)(=O)N3CC[C@H]4CC[C@@H](C(=O)NC(c5ccccc5)c5ccccc5)N4C(=O)[C@@H](NC(=O)[C@H](C)NC)C3)c2)CC[C@H]2CC[C@@H](C(=O)NC(c3ccccc3)c3ccccc3)N2C1=O [Compound 2]
Given back: > 50 µM
